All figures here come from patent US20130323259A1.

Below: a set of entries, each annotated with reported Bioactivity as % of RM (NCC0114-0000-0006), NK-92 bioassay.
# system tested: human IL-21 (hIL-21 protein; recombinant human IL-21) (human, UniProt Q9HBE4 25-162, limits assumed)
# Sequence (Q9HBE4 25-162 limits assumed): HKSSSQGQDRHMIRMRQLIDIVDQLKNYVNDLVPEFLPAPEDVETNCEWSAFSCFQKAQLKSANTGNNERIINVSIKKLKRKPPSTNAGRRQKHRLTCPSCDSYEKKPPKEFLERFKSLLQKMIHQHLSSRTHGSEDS
# test details: cell-based or functional assay
Output spec: scalar in %, unitless text.

[[record]]
binder = "0114-0000-0040, light chain S53T variant of mAb 0006 (NNC 0114-0005) (antibody, human IgG1, kappa, V domains shown) VH: QVQLVESGGGVVQPGRSLRLSCAASGFTFSSYGMHWVRQAPGKGLEWVAFIWYDGSDKYYADSVKGRFTISRDNSKNTLYLQMNSLRAEDTAVYYCARDGDSSDWYGDYYFGMDVWGQGTTVTVSS VL: EIVLTQSPGTLSLSPGERATLSCRASQSVSSSYLAWYQQKPGQAPRLLIYGATSRATGIPDRFSGSGSGTDFTLTISRLEPEDFAVYYCQQYGSWTFGQGTKVEIKR"
endpoint_unit = "%"
val = 92.9

[[record]]
binder = "NNC-0114-0044, Light-chain residue 57 Thr to Ser mutated form (L:T57S) of NNC 0114-0005 (antibody, human IgG1, kappa, V domains shown) VH: QVQLVESGGGVVQPGRSLRLSCAASGFTFSSYGMHWVRQAPGKGLEWVAFIWYDGSDKYYADSVKGRFTISRDNSKNTLYLQMNSLRAEDTAVYYCARDGDSSDWYGDYYFGMDVWGQGTTVTVSS VL: EIVLTQSPGTLSLSPGERATLSCRASQSVSSSYLAWYQQKPGQAPRLLIYGASSRASGIPDRFSGSGSGTDFTLTISRLEPEDFAVYYCQQYGSWTFGQGTKVEIKR"
endpoint_unit = "%"
val = 77.8

[[record]]
binder = "0114-0000-0043, light chain R55K variant of mAb 0006 (NNC 0114-0005) (antibody, human IgG1, kappa, V domains shown) VH: QVQLVESGGGVVQPGRSLRLSCAASGFTFSSYGMHWVRQAPGKGLEWVAFIWYDGSDKYYADSVKGRFTISRDNSKNTLYLQMNSLRAEDTAVYYCARDGDSSDWYGDYYFGMDVWGQGTTVTVSS VL: EIVLTQSPGTLSLSPGERATLSCRASQSVSSSYLAWYQQKPGQAPRLLIYGASSKATGIPDRFSGSGSGTDFTLTISRLEPEDFAVYYCQQYGSWTFGQGTKVEIKR"
endpoint_unit = "%"
val = 89.8


Please fill in: Bioactivity as % of RM (NCC0114-0000-0006), NK-92 bioassay reported for 0114-0000-0041, light chain S54A variant of mAb 0006 (NNC 0114-0005) (antibody, human IgG1, kappa, V domains shown) VH: QVQLVESGGGVVQPGRSLRLSCAASGFTFSSYGMHWVRQAPGKGLEWVAFIWYDGSDKYYADSVKGRFTISRDNSKNTLYLQMNSLRAEDTAVYYCARDGDSSDWYGDYYFGMDVWGQGTTVTVSS VL: EIVLTQSPGTLSLSPGERATLSCRASQSVSSSYLAWYQQKPGQAPRLLIYGASARATGIPDRFSGSGSGTDFTLTISRLEPEDFAVYYCQQYGSWTFGQGTKVEIKR = 83.9

Please fill in: Bioactivity as % of RM (NCC0114-0000-0006), NK-92 bioassay reported for 0114-0000-0039, light chain S53A variant of mAb 0006 (NNC 0114-0005) (antibody, human IgG1, kappa, V domains shown) VH: QVQLVESGGGVVQPGRSLRLSCAASGFTFSSYGMHWVRQAPGKGLEWVAFIWYDGSDKYYADSVKGRFTISRDNSKNTLYLQMNSLRAEDTAVYYCARDGDSSDWYGDYYFGMDVWGQGTTVTVSS VL: EIVLTQSPGTLSLSPGERATLSCRASQSVSSSYLAWYQQKPGQAPRLLIYGAASRATGIPDRFSGSGSGTDFTLTISRLEPEDFAVYYCQQYGSWTFGQGTKVEIKR = 95.2
